- Tested on: K4 kissing-loop RNA reporter;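 note: bound reporter read as fluorescence of individual clusters on recovered sequencing chips by microscopy, with normalized cluster intensities fitted with a binding model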
- PROTOCOL_NOTES: apparent KD of K4 kissing-loop reporter; higher = weaker reporter binding
- RUN_CONDITIONS: Eterna round: R107; input ligand: arginine 13.2 mM
READOUT_NAME: apparent KD of K4 kissing-loop reporter

Give its apparent KD of K4 kissing-loop reporter value. Item: AGACUACCACACUGUCAAUAGACAGUGAGCUAGGAUAUGCUGAUAAGCAGAAGGAGUGAUGUUCCCAGGUAGUCAAUAAAAUAAU [FmnAX 13 G29+C66] 0.192 µM

Give its apparent KD of K4 kissing-loop reporter value. Item: GAUAUAUAUAGAGGAUAUAGCAGGUGAUACAAGAAAGUGAGUGAUGUUUAUGUAGAUGAUGAUAUGUUAGAAGGCUAUAUAUAUC [radioactive7-modED1598] 0.736 µM

Give its apparent KD of K4 kissing-loop reporter value. Item: UCAGAGAACGAAGGAUAUUGACCUGUUUUAUGCUAUGAGUGAUGUUCUUAGUAUCAGCGAGAUGAUCAAGAAGGUCGGGUUCGAC [theeternabot_sameState_KL_FMN_B_48] 0.174 µM

Give its apparent KD of K4 kissing-loop reporter value. Item: AAGUGUGGUCCAGUGAUGUUGGAACCAGAUACCAGCGACAUAGUGCGCCCUUGGCAGCUGGCACACAUGCGCUGCACGACUAGAA [Riusveis] 0.182 µM

Give its apparent KD of K4 kissing-loop reporter value. Item: UGACUGGACUGAAGGAGCGGGCGAGACAAAGUCUCGAACUCUUAGUGAUGUUAGGAAAUAACCCAGGUAGGUCGCAGUCUAGUCU 0.132 µM

Give its apparent KD of K4 kissing-loop reporter value. Item: UGUCAUUGGUCGGCCGCCACUUCGUGUAGAGUGAUGUUUUGUAGGACGGAUCGAAAGAUCUGUCGGAGGACCGGGACCGAUGACU [FiskerMod 17 - Jieux - Same State - Tryptophan B] 0.139 µM
